# credit: ChEMBL document CHEMBL1127424

assay-procedure: Solubility (buffer pH 7.4)
Assay type: physicochemical
particulars: read-out: S
recorded-endpoint: log10(solubility) (log10 of the value in µg/mL)
Friendly reminder: values = log10 of solubility, unit µg/mL.

Solved cases (5 shown):
C[C@H]1[C@H](N)CN1c1c(F)cc2c(=O)c(C(=O)O)cn(C3CC3)c2c1F
1.37
C[C@H]1N(c2cc3c(cc2F)c(=O)c(C(=O)O)cn3C2CC2)C[C@]1(C)N
0.11
CNC1(C)CN(c2c(F)cc3c(=O)c(C(=O)O)cn(C4CC4)c3c2F)C1
-0.30
CNC1(C)CN(c2cc3c(cc2F)c(=O)c(C(=O)O)cn3C2CC2)C1
-0.15
C[C@H]1[C@H](N)CN1c1c(F)cc2c(=O)c(C(=O)O)cn(-c3ccc(F)cc3F)c2c1F
1.37

Give me measured log10(solubility), please, for this compound: CC[C@H]1[C@@H](N)CN1c1cc2c(cc1F)c(=O)c(C(=O)O)cn2C1CC1
1.63

Specify reported log10(solubility) for the compound shown: CC1(N)CN(c2nc3c(cc2F)c(=O)c(C(=O)O)cn3C2CC2)C1
1.14

State its log10(solubility): CN(C)C1(C)CN(c2c(F)cc3c(=O)c(C(=O)O)cn(C4CC4)c3c2F)C1
1.37

State its log10(solubility) for this compound: CN[C@H]1CN(c2c(F)cc3c(=O)c(C(=O)O)cn(C4CC4)c3c2F)[C@@H]1C
1.12

Return log10(solubility) for the following compound: C[C@H]1[C@@H](N)CN1c1c(F)cc2c(=O)c(C(=O)O)cn(C3CC3)c2c1F
1.37

Fill in reported log10(solubility) for this entry: C[C@@H]1[C@@H](N(C)C)CN1c1cc2c(cc1F)c(=O)c(C(=O)O)cn2C1CC1
1.98

Could you please provide reported log10(solubility) for C[C@H]1[C@H](N)CN1c1cc2c(cc1F)c(=O)c(C(=O)O)cn2-c1ccc(F)cc1F [CETEFLOXACIN] ? Thanks!
1.49
